This collection of values is drawn from paper PMC5727127.

target: 3TD of SETDB1, R384A mutant, as used in ITC (UniProt Q15047 190-410, alanine mutation of R384); assay: ITC
Where no end group is shown, it is not given here.
reported.property: Kd (µM)
The reply should be a number in µM, with the unit left off.

The cases that follow already have their Kd on record.
binder: KQTARK(Me3)STGGK(Ac)APRKQ [H3K9me3/K14ac peptide in solution (ITC; crystals)]
Kd / µM: 9.2

binder: KQTARK(Me)STGGK(Ac)APRKQ [H3K9me1/K14ac peptide in solution (ITC)]
Kd / µM: 5.1

Next up:
Enquiry: For the binder shown here, KQTARK(Me2)STGGK(Ac)APRKQ [H3K9me2/K14ac peptide in solution (ITC; crystal with W358A), limits not stated] , give the reported Kd.
Return: 2.6
